Hello, the source for this data is patent US12703739, in case you need it.

# System Tested: Gc of RVFV-SA51 (Rift Valley Fever Virus strain SA51)
# Procedure Summary: cell-based or functional assay
What IC50 (ng/ml), neutralization of RVFV-SA51 was measured for each of the following?
Could you give me the number in ng/mL? Just the number is fine.

Request: Query: IC50 (ng/ml), neutralization of RVFV-SA51; subject: RVFV-250 (antibody, V domains shown) VH: QVQLQESGPGLAKPSETLSLTCTVSGGSISSYFWSWIRQPAGKGLEWIGRIHTTGSTNYNPSLKNRVIMSVDTSKNQFSLNLSSVTAADTAVYYCAREGTAFDIWGQGTMVTVSS VL: SYELTQSPSVSVSPGQTASIPCSGDKLGDKYACWYQQKPGQSPVLVIYQDTKRPSGIPERFSGSNSGNTATLTISETQAMDEADYYCQAWDSSTPWVFGGGTKLTVL
Result: 120

Request: // query: RVFV-121 (antibody, V domains shown) VH: QMQLQESGPGLVKPSGTLSLTCAVSGDSISTSTWWSWVRQSPGKGLEWIGEIYHSESTNYNPSLKSRVSLSLDKSKNQLSLRLSSVTAADTGVYYCARGSLVFDYWGQGAQVVVSS VL: EIVMTQSPATLSVSPGERATLSCRASQSVSSNLAWYQQKPGQAPRLLIYAASTRATGIPARFSGSGSGTEFTLTISSLQSEDFAVYYCQQFNNWPRTFGQGTKVEIK
Result: 1110

Request: Item: RVFV-326 (antibody, V domains shown) VH: EAQLVESGGGLVKPGGSLRLSCAASGFSFSYAWMSWVRRLPGKGLEWVGRIKGKADGETTDYAAPVKGRFTISRDDSKTTVYLQMNTLKIEDTGVYYCTTDIGDFYDSIGYSYTDYWGQGTLVTVSS VL: EIVLTQSPATLSLSPGERATLSCRASQSVSSYLAWYQQKPGQAPRLLIYDASNRATGIPVRFSGSGSGTDFTLTISSLEPEDFALYYCQQRSDWPPTFGQGTKVEIK
Result: 370

Request: Similarly, RVFV-249 (antibody, V domains shown) VH: QVLLVQSEAEVRKPGASVKISCKTSGYTFTTYFMHWVRQAPGQGLEWVAIVDPSTGNTGYAQRFQGRVTVTRDTSTGTLFMELTSLTTEDTAMYYCGRDRGSRAVDSWGQGTLVTVFS VL: QSVLTQPPSVSGAPGQRVTISCSGSSSNVGPNTVSWYQQLPGVAPKLLIYRNNQRPSGVPDRFSGSKFGTSASLVIGGLQSEDEADYYCAAWDDSLNGHMVFGGGTKVAVL ?
Result: 30000
